Reference for the values: PubChem BioAssay (NCI)

I'd appreciate it if you could supply growth values for the items below.
test system: MDA-MB-435 melanoma; test: NCI-60 one-dose screen, 48 h (100 = growth as untreated, 0 = no growth, -100 = all killed); settings: 10 µM unless noted
About 83,000 compounds went through this panel and 20% of them were active in at least one assay; those are over-represented in the sample as a whole.
Just the number please, in %, no unit attached.

For reference, reported growth for COc1cc(-c2csc(NC(=O)Nc3ccc(Cl)cc3Cl)n2)cc(OC)c1OC stands at -7.76

Memo: CC1=CNNc2c3ncnc-3ncn21 , reported growth: 111

Per the record, CCN1C(=O)N(CC)C2Nn3c(s/c(=C4\C(=O)N(C5CCCC5)c5ccccc54)c3=O)=NC21 (stereo unspecified) has growth of -15.9

Noted for O=C(CSc1nc(-c2ccc(Cl)cc2)cn1-c1ccc(Cl)cc1)c1ccc(Br)cc1 : its growth reads 91.5

// COc1cc2c3c(c(=O)oc2cc1OS(=O)(=O)c1ccc(C(F)(F)F)cc1)CCCCC3 : growth value = 91.6

response.value for CCCCCCOc1ccc(C2(Cl)c3ccccc3N(C)c3ccccc32)cc1 (field: growth) = -23.5

What the record says about O=C(Nc1cc(C(F)(F)F)cc(C(F)(F)F)c1)Nc1ccc(OCc2nnc(-c3ccc(Cl)cc3)o2)c(F)c1 : growth is 9.18

The compound listed as COc1c(NC[C@H]2OC(O)[C@H](O)[C@@H](O)[C@@H]2O)c(=O)c1=O (stereo partly specified) has a reported growth of 98

Item: Oc1ccc(N=Cc2ccccc2)cc1 | growth: 97.8

Short answer for COc1cc(Br)c(OC)cc1Br : growth was 105

So for Cn1c(-c2nonc2NC(=O)c2ccc(F)cc2)nc2ccccc21 , the logged growth turned out to be 107
